Below, each of the molecules is paired with its reported EC50 value.
# Test system: SH-SY5Y cells
# protocol text: H2O2-EC50 of hydralazine and its analogs (protection from H2O2 stress)
# Format: cell-based
# experimental context: Homo sapiens

NNC(=O)c1ccncc1 [Isonicotinohydrazide] = ≥ 50 µM
CN(C)Nc1nncc2ccccc12 = ≥ 50 µM
Oc1nnc(Cl)c2ccccc12 = ≥ 20 µM

Return EC50 (reported value) for this molecule: C#CCOc1nnc(NN)c2ccccc12
4.32 µM

Return EC50 (reported value) for this molecule: O=c1[nH]ncc2ccccc12
≥ 50 µM

Return EC50 (reported value) for this molecule: NNc1nnc(Cl)c2ccccc12 [1-Chloro-4-hydrazinyl-phthalazine, 1-Chloro-4-hydrazinylphthalazine]
≥ 20 µM
